# procedure text: Ocular tissue and plasma pharmacokinetics, 15 mg/kg single and BID oral, Dutch Belted rabbits (Example 3/5)
# Format: in vivo
# measurement parameters: Dutch Belted, rabbit, plasma, po, 15 mg/kg, DB rabbit, 15 mg/kg single oral dose, Day 1, 6 h; read-out: Mean plasma concentration
recorded metric: concentration at 6 h (ng/mL)

CC(=O)c1nn(CC(=O)N2C[C@H](F)C[C@H]2C(=O)Nc2cccc(Br)n2)c2ccc(-c3cnc(C)nc3)cc12 [Compound 1]    33.7

---

# procedure text: Ocular tissue and plasma pharmacokinetics, 50 mg/kg BID oral, Dutch Belted rabbits (Example 4/5)
# Format: in vivo
# measurement parameters: male, Dutch Belted, rabbit, retina, po, 50 mg/kg, DB rabbit, 50 mg/kg BID oral, Day 15, 24 h; read-out: Mean retina concentration
recorded metric: concentration at 24 h (ng/g)

CC(=O)c1nn(CC(=O)N2C[C@H](F)C[C@H]2C(=O)Nc2cccc(Br)n2)c2ccc(-c3cnc(C)nc3)cc12    265
